The measurements presented in this section are drawn from PubChem BioAssay (NCI).

Tested on: KM12 colon
Assay: NCI-60 one-dose screen, 48 h
Details: 10 µM unless noted
The panel holds about 83,000 compounds, 20% with a hit somewhere; the sample as a whole holds those more often. Calls of active or inactive are those of the source. Rule for the calls: active = growth percent below 10; inactive = the rest.
Returns: one label drawn from 1 (active), 0 (inactive)

Qu. Record request — test call for Cn1c2ccc(Br)cc2c2c3c(c4c5cc(F)ccc5oc4c21)C(=O)N(O)C3=O
Ans. 0

Qu. Status in this test for COc1ccccc1N1CCN(C2=NN=C(c3cccc(Cl)c3)c3ccccc3C2)CC1 ?
Ans. 1

Qu. Kindly provide the recorded test outcome for the following compound: O=C(NCCNc1cc(-c2cn(-c3ccccc3)nc2-c2cccc(O)c2)ccn1)Nc1ccc(Cl)c(C(F)(F)F)c1
Ans. 0

Qu. Please indicate how the test categorized CCCCCc1ccc(S(=O)(=O)N(C(C)=O)c2cccc(-c3csc(N(CCN4CCN(C)CC4)C(C)=O)n3)c2)cc1 .
Ans. 0

Qu. # outcome recorded in this test, key = COc1c([C@@H](CC(C)C)OC(C)=O)ccc2c1C(=O)OCc1cc(C)cc(O)c1O2
Ans. 0

Qu. Returns: the outcome recorded for CN(c1ccc(Cl)cc1)S(=O)(=O)c1ccc(-c2cnc(C3CC3)o2)cc1 in this assay.
Ans. 1

Qu. Returns: the outcome recorded for NS(=O)(=O)c1ccc(-n2cc(CC=O)nn2)cc1 in this assay.
Ans. 0

Qu. Name the outcome recorded for CNC(=O)c1c(NC(=O)c2ccc(F)cc2F)sc2c1CCC(=O)C2 in the assay.
Ans. 1

Qu. Tell me the assay call for Nc1c(C(=O)c2ccccc2)sc2nc(-c3cnccn3)cc(-c3cccs3)c12 please.
Ans. 0

Qu. Lab log entry: CC(=O)NC(C)(C)C(=O)N1CCC[C@H]1C(=O)NC(C)(C)C(=O)N[C@@H](C)C(=O)NC(C)(C)C(=O)NC(C)(C)C(=O)N[C@@H](CCC(N)=O)C(=O)NC(C)(C)C(=O)N[C@H](C(=O)NC(C)(C)C(=O)NCC(=O)N[C@@H](CC(C)C)C(=O)NC(C)(C)C(=O)N1CCC[C@H]1C(=O)N[C@H](C(=O)NC(C)(C)C(=O)NC(C)(C)C(=O)N[C@@H](CCC(N)=O)C(=O)N[C@@H](CCC(N)=O)C(=O)N[C@H](CO)Cc1ccccc1)C(C)C)C(C)C — outcome as called in the assay?
Ans. 0

Qu. Each compound tested received a call. Report the one for O=C1/C(=C/c2ccc([N+](=O)[O-])cc2)SC(=Nc2ccccc2)N1Nc1ccccc1 .
Ans. 0

Qu. Hey, what did the test say about CN1CCN(Cc2ccc(NC(=O)c3cncc(C#Cc4cnc5ccc(O[C@H]6CCOC6)nn45)c3)cc2C(F)(F)F)CC1 ?
Ans. 1

Qu. Could you please tell me the result logged for CCN(CC)CCCC(C)NCC(=O)NC(c1ccc2c(c1)OCO2)c1cc(Cl)c2cccnc2c1O (configuration not stated) in this assay?
Ans. 1

Qu. Recorded call for CCOC(=O)c1c(NCC(=O)Nc2cccc([N+](=O)[O-])c2)sc2c1CCCC2 ?
Ans. 1

Qu. Hello, I am checking results. What call was entered for COc1cc(OC)c(S(N)(=O)=O)cc1C(=O)/C=C/c1ccccc1 ?
Ans. 1

Qu. Could you please tell me the result logged for COc1ccc(N)cc1C(=O)Nc1cccc(-c2cc(=O)c3c(OC)c(OC)c(OC)cc3o2)c1 in this assay?
Ans. 0

Qu. Per the records of this test, what outcome belongs to IP(CCCCCCCCCCSc1n(Cc2ccc3ccccc3c2)c(-c2ccccc2)c(-c2ccccc2)[n+]1Cc1ccc2ccccc2c1)(c1ccccc1)(c1ccccc1)c1ccccc1 ?
Ans. 1
